Assign percentage damage caused to the plant, ECHCG to each entry below.
Tested on: Echinochloa crus-galli (ECHCG)
EXPERIMENT: Post-emergence test, glasshouse
Assay type: in vivo
CONDITION: 250 g/ha, evaluated after 13 days, Table B1

Query: Which percentage damage caused to the plant, ECHCG value is on record for Cc1ncc(-n2nc(C(F)(F)F)cc2Oc2ncc(Cl)cn2)cn1 [Compound 1.022] ?
Response: 4 (4=61-80%)

Query: Query FC(F)(F)c1ccc(-n2nc(C(F)(F)F)cc2Oc2ncc(Br)cn2)cc1 [Compound 1.036] next
Response: 1 (1=0-20%)

Query: Query FC(F)(F)c1cc(Oc2ncc(Cl)cn2)n(-c2cccc(Cl)c2)n1 [Compound 1.004] next
Response: 3 (3=41-60%)

Query: Query Fc1cnc(Oc2cc(C(F)(F)F)nn2-c2ccc(C(F)(F)F)cc2)nc1 [Compound 1.021] next
Response: 5 (5=81-100%)

Query: Query Cc1cnc(Oc2cc(C(F)(F)F)nn2-c2ccc(C(F)(F)F)cc2)nc1 [Compound 1.020] next
Response: 4 (4=61-80%)

Query: Query FC(F)(F)c1ccc(-n2nc(C(F)(F)F)cc2Oc2ncc(Cl)cn2)cc1 [Compound 1.001] next
Response: 5 (5=81-100%)

Query: Query FC(F)(F)c1cccc(-n2nc(C(F)(F)F)cc2Oc2ncc(Cl)cn2)c1 [Compound 1.003] next
Response: 1 (1=0-20%)

Query: Query Fc1ccccc1-n1nc(C(F)(F)F)cc1Oc1ncc(Cl)cn1 [Compound 1.033] next
Response: 1 (1=0-20%)
